Measured inhibition at 0.1 µM, listed per entry for reference.
Target: VLA-4 (α4β1 integrin) binding to immobilized VCAM-1 (Homo sapiens, UniProt P05556+P13612)
Construct: followed by 10 μl of Ramos cell-derived VLA-4; endogenous in cells; host or cells: Ramos cells (VLA-4 preparation derived from the cells)
Sequence (P13612 34-1032): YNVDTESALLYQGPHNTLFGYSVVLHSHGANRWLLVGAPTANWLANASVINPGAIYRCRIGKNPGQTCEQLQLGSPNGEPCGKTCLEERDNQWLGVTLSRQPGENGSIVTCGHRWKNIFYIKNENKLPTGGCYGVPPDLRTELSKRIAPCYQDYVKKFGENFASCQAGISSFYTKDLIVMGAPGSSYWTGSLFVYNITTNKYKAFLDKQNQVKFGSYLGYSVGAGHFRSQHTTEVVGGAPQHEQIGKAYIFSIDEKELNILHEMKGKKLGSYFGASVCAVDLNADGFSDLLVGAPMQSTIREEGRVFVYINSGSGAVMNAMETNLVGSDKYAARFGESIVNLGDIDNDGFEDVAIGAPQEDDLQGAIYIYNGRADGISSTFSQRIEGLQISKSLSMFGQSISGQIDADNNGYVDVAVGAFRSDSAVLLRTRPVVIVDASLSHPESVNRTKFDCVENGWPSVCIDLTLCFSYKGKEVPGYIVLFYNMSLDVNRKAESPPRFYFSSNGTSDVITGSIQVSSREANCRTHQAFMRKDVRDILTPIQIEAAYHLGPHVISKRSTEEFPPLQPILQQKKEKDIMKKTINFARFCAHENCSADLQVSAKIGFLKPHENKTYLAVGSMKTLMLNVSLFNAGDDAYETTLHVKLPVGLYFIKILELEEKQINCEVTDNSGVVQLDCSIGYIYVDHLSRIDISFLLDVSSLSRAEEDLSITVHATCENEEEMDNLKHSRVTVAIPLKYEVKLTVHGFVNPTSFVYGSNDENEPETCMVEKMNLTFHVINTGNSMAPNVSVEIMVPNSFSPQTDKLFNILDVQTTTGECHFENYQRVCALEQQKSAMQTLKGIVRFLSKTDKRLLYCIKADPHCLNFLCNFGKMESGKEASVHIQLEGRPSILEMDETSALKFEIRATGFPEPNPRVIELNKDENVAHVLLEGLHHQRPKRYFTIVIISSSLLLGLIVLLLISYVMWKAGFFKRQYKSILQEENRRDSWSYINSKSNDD
Sequence (P05556 21-798): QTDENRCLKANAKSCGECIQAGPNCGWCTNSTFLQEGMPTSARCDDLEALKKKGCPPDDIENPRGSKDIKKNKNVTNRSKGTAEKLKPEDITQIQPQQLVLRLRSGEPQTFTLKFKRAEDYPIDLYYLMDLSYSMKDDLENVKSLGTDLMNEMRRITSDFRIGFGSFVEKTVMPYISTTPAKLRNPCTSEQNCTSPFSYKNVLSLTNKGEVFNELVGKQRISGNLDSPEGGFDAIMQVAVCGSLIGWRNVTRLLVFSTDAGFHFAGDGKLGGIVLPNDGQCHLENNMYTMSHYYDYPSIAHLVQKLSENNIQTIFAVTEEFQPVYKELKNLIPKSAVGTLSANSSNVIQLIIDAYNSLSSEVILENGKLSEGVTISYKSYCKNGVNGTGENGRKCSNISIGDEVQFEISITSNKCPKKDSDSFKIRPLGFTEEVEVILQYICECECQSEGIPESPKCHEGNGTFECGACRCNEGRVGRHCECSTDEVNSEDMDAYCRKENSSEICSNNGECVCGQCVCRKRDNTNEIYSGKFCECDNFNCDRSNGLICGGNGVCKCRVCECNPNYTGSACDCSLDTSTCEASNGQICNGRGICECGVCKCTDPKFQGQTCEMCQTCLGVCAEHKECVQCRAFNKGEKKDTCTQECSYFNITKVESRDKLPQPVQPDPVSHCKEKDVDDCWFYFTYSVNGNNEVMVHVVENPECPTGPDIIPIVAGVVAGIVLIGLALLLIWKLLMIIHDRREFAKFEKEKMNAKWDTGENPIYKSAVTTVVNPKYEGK
Test: VLA-4/VCAM-1 Screening Assay (solid-phase, dual antibody ELISA)
reported_metric: inhibition at 0.1 µM

{"compound": "O=C(Nc1ccc(C[C@H](NC(=O)C2(c3ccccc3)CCCCC2)C(=O)O)cc1)c1ccnc2ccccc12 [Example 77]", "study_target": "VLA-4 (α4β1 integrin) binding to immobilized VCAM-1 (Homo sapiens, UniProt P05556+P13612)", "reported_metric": "inhibition at 0.1 µM", "value_observed": "93%"}
{"compound": "O=C(Nc1ccc(C[C@H](NC(=O)C2(c3ccccc3)CCCC2)C(=O)O)cc1)c1ccnc2ccccc12 [Example 75]", "study_target": "VLA-4 (α4β1 integrin) binding to immobilized VCAM-1 (Homo sapiens, UniProt P05556+P13612)", "reported_metric": "inhibition at 0.1 µM", "value_observed": "92%"}
{"compound": "COc1ccc(C2(C(=O)N[C@@H](Cc3ccc(NC(=O)c4ccnc5ccccc45)cc3)C(=O)O)CCCCC2)cc1 [Example 79]", "study_target": "VLA-4 (α4β1 integrin) binding to immobilized VCAM-1 (Homo sapiens, UniProt P05556+P13612)", "reported_metric": "inhibition at 0.1 µM", "value_observed": "95%"}
{"compound": "CC1CCC(C)(C(=O)N[C@@H](Cc2ccc(NC(=O)c3ccnc4ccccc34)cc2)C(=O)O)C1(C)C (some centres unmarked) [Example 71]", "study_target": "VLA-4 (α4β1 integrin) binding to immobilized VCAM-1 (Homo sapiens, UniProt P05556+P13612)", "reported_metric": "inhibition at 0.1 µM", "value_observed": "86%"}
{"compound": "O=C(Nc1ccc(C[C@H](NC(=O)C2(c3ccc(Cl)cc3)CCCC2)C(=O)O)cc1)c1ccnc2ccccc12 [Example 80]", "study_target": "VLA-4 (α4β1 integrin) binding to immobilized VCAM-1 (Homo sapiens, UniProt P05556+P13612)", "reported_metric": "inhibition at 0.1 µM", "value_observed": "89%"}
{"compound": "CC(C)C(C(=O)N[C@@H](Cc1ccc(NC(=O)c2ccnc3ccccc23)cc1)C(=O)O)c1ccccc1 (some centres unmarked) [Example 76]", "study_target": "VLA-4 (α4β1 integrin) binding to immobilized VCAM-1 (Homo sapiens, UniProt P05556+P13612)", "reported_metric": "inhibition at 0.1 µM", "value_observed": "93%"}
{"compound": "Cc1ccc(C2(C(=O)N[C@@H](Cc3ccc(NC(=O)c4ccnc5ccccc45)cc3)C(=O)O)CCCC2)cc1 [Example 78]", "study_target": "VLA-4 (α4β1 integrin) binding to immobilized VCAM-1 (Homo sapiens, UniProt P05556+P13612)", "reported_metric": "inhibition at 0.1 µM", "value_observed": "93%"}
{"compound": "CCC(C(=O)N[C@@H](Cc1ccc(NC(=O)c2ccnc3ccccc23)cc1)C(=O)O)c1ccccc1 (some centres unmarked) [Example 69]", "study_target": "VLA-4 (α4β1 integrin) binding to immobilized VCAM-1 (Homo sapiens, UniProt P05556+P13612)", "reported_metric": "inhibition at 0.1 µM", "value_observed": "87%"}
{"compound": "CCCC(C)(CC)C(=O)N[C@@H](Cc1ccc(NC(=O)c2ccnc3ccccc23)cc1)C(=O)O (some centres unmarked) [Example 68]", "study_target": "VLA-4 (α4β1 integrin) binding to immobilized VCAM-1 (Homo sapiens, UniProt P05556+P13612)", "reported_metric": "inhibition at 0.1 µM", "value_observed": "86%"}
{"compound": "O=C(Nc1ccc(C[C@H](NC(=O)C23CC4CC(CC(C4)C2)C3)C(=O)O)cc1)c1ccnc2ccccc12 [Example 65]", "study_target": "VLA-4 (α4β1 integrin) binding to immobilized VCAM-1 (Homo sapiens, UniProt P05556+P13612)", "reported_metric": "inhibition at 0.1 µM", "value_observed": "92%"}
{"compound": "CC1(C(=O)N[C@@H](Cc2ccc(NC(=O)c3ccnc4ccccc34)cc2)C(=O)O)CCCCC1 [Example 70]", "study_target": "VLA-4 (α4β1 integrin) binding to immobilized VCAM-1 (Homo sapiens, UniProt P05556+P13612)", "reported_metric": "inhibition at 0.1 µM", "value_observed": "86%"}
